# testedOn: F508delCFTR (Homo sapiens, UniProt P13569, DEL508-508)
# Construct: expressed in transfected cells; host or cells: CFBE41o- (human lung derived epithelial cell line), doxycycline-inducible expression
# Sequence (P13569 with tags, fused parts or gaps DEL508-508): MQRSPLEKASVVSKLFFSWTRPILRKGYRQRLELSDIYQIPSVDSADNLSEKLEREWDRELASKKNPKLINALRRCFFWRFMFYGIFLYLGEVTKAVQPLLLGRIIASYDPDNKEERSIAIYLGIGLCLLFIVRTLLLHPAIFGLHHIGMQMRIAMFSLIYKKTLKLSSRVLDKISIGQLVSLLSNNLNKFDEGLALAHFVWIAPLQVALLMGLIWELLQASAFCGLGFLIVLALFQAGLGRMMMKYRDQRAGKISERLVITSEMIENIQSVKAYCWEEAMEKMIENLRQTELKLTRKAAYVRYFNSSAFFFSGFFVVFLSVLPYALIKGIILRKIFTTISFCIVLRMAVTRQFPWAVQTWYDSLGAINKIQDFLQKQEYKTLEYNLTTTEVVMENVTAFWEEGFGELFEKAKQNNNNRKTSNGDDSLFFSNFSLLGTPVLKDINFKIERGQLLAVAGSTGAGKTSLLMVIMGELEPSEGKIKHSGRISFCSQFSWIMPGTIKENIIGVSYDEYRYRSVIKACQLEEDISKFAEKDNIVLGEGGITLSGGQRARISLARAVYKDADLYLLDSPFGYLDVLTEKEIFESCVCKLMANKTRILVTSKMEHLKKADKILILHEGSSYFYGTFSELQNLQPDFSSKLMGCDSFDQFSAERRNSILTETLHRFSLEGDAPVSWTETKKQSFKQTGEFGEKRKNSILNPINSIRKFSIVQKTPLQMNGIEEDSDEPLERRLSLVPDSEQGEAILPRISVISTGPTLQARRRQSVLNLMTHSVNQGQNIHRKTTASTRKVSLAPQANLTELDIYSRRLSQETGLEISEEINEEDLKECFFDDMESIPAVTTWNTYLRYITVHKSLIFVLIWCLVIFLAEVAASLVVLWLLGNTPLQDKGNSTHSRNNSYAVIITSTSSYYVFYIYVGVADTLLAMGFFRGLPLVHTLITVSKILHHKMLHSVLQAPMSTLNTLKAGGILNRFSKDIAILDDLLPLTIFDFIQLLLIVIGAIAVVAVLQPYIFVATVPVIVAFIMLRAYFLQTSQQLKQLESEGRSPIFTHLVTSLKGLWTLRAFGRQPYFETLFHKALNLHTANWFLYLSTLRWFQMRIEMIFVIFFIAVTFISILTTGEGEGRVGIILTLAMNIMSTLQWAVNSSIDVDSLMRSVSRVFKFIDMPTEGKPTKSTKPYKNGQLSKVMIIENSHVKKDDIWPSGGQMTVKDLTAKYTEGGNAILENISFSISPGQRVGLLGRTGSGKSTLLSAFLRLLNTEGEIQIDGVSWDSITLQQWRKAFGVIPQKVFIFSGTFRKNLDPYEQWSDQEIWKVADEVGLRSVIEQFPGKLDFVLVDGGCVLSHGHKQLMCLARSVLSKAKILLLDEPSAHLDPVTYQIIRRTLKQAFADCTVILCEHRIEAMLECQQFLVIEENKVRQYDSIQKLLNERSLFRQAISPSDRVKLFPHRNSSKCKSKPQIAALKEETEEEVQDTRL
# assayProtocol: Cell Surface Expression-Horse Radish Peroxidase (CSE-HRP) assay;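 note: % of on-plate positive control (2 µM of the co-corrector compound) after DMSO subtraction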
# Assay type: cell-based
# conditionContext: CFBE41o-F508delCFTR-HRP cells; with co-corrector (2 μM); normalized to on-plate positive control; highest concentration 20 μM
propertyLabel: Maximum % activity (with co-corrector)

Known Maximum % activity (with co-corrector) results, listed for orientation:
CCc1ccccc1[C@H]1[C@@H](OCc2cc3ccccc3nc2OC)[C@H](C(C)(C)C)[C@@H](C(=O)O)N1C(=O)[C@@H]1CCCCO1 [Example 254]	+++ (≥350)
COc1ncc(C2CCC2)cc1CO[C@H]1[C@H](C(C)(C)C)[C@@H](C(=O)O)N(C(=O)C2CCCCC2)[C@H]1c1ccccc1 [Example 53]	+++ (≥350)
CCc1ccccc1[C@H]1[C@@H](OCc2cc(C3CCC3)cnc2OC)[C@H](C(C)(C)C)[C@@H](C(=O)O)N1C(=O)[C@@H]1CCCCO1 [Example 185]	+++ (≥350)
COc1ccc(C(F)(F)F)cc1CO[C@@H]1[C@@H](C(C)(C)C)[C@H](C(=O)O)N(C(=O)[C@H]2CCC[C@H](OC)C2)[C@@H]1c1ccccc1 [Example 27]	+++ (≥350)
COc1ncc(C2CCC2)cc1CO[C@H]1[C@H](C(C)(C)C)[C@@H](C(=O)O)N(C(=O)[C@@H]2CCCO2)[C@H]1c1ccccc1C1CC1 [Example 149]	+++ (≥350)

Now consider the entry below.
Return Maximum % activity (with co-corrector) for the following molecule: CC(C)Oc1ncccc1[C@H]1[C@@H](OCc2coc3ccc(C(F)(F)F)cc23)[C@H](C(C)(C)C)[C@@H](C(=O)O)N1C(=O)C1CCCCC1 [Example 279]
+++ (≥350)
